test: cell-permeable autofluorescent compounds in GFP channel, dose response, artefact control, imaging, high-content imaging (AID 2124); conditions: cells, GFP-channel autofluorescence, high-content imaging; cell count; at 10 µM;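 note: cells exposed to compound for 48 hours before fixing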
Records with an inconclusive call do not appear.
quantity: cell count (cells)

>>> assay_value("CCCN1C(=O)/C(=C/C=C2\\N(CC)c3ccccc3C2(C)C)SC1=S")
3030
>>> assay_value("CCN(CC)c1ccc2cc(-c3nc(-c4ccc(OC)cc4)cs3)c(=O)oc2c1")
2750
>>> assay_value("NS(=O)(=O)c1ccc(NC=C2C(=O)OC3(CCCCC3)OC2=O)cc1")
3080
>>> assay_value("N#C/C(=C\\c1ccc(N2CCCCC2)o1)C(N)=O")
3260
>>> assay_value("CCOc1ccc(OCCCCn2ccnc2)cc1")
2900
>>> assay_value("O=C(O)CC12CSc3[nH]c(=O)sc3C1c1ccccc1OC2=O (stereo not drawn)")
3020
>>> assay_value("COc1ccc(NC2=Nc3ccccc3N3C2=Nc2c(c(C)nn2-c2ccc(C)cc2)C3c2cccnc2)cc1 (stereo not drawn)")
2790
>>> assay_value("Cc1cccc(OCCNc2nc3c(c(=O)n(C)c(=O)n3C)n2C)c1")
3060
>>> assay_value("CN1/C(=C/C=C(C#N)C#N)C=Cc2ccccc21")
2500
>>> assay_value("N#C/C(=C/c1ccc(N2CCCCC2)o1)C(=O)Nc1ccc2ccccc2c1")
3000
>>> assay_value("Cc1noc(/C=C/c2ccc(-c3ccccc3Cl)o2)c1[N+](=O)[O-]")
3160
>>> assay_value("CC1CC(=O)C2=C(C1)OC(N)=C(C#N)C2c1coc2ccccc2c1=O (stereo not drawn)")
3180
>>> assay_value("CNC(=O)c1c(NC(=O)c2ccc(S(=O)(=O)N3CCCc4ccccc43)cc2)sc2c1CCN(C)C2")
3190
>>> assay_value("CC(C)=NNc1nc2c(c(=O)n(C)c(=O)n2C)n1CCc1ccccc1")
3610
>>> assay_value("Nc1cc2nc3ccccc3nc2cc1N")
1390
>>> assay_value("C=CCn1c(-c2oc3nc(-c4ccccc4)cc(-c4ccccc4)c3c2N)n[nH]c1=S")
2820
>>> assay_value("COc1ccc(C(=O)/C=C/c2ccc(N(C)C)cc2)c(OC)c1")
2380
>>> assay_value("CCCCNc1ccc2c3c(cccc13)C(=O)N(CCCC)C2=O")
2720
>>> assay_value("CCn1c(Cn2nnc(-c3ccccc3)n2)nnc1SCC(=O)Nc1ccc(C(C)=O)cc1")
3180
>>> assay_value("c1ccc2c(N3CCNCC3)nsc2c1")
2010
>>> assay_value("Cc1[nH]c2ccccc2c1Cc1nnc(SCC(N)=O)o1")
2780
>>> assay_value("COc1cccc(OC)c1OCCN(C)C")
3360
>>> assay_value("CN1CC=C2C(C#N)=C(N)C(C#N)(C#N)C(Cc3ccccc3)C2C1 (stereo not drawn)")
3290

* * *

test: cell-permeable autofluorescent compounds in GFP channel, dose response, artefact control, imaging, high-content imaging (AID 2124); conditions: cells, GFP-channel autofluorescence, high-content imaging; cell count; at 10 µM;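 note: cells exposed to compound for 48 hours before fixing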
Records with an inconclusive call do not appear.
A collection of molecules and their measured cell count
quantity: cell count (cells)

>>> assay_value("Nc1c(C(=O)N/N=C/c2cccnc2)oc2nc(-c3ccco3)cc(-c3ccco3)c12")
2960
>>> assay_value("CC(C)N1CCc2c(sc(NC(=O)c3cc4cc([N+](=O)[O-])ccc4s3)c2C(N)=O)C1")
177
>>> assay_value("CN1CC=C2C(C#N)=C(N)C(C#N)(C#N)[C@H](c3ccoc3)[C@H]2C1")
1690
>>> assay_value("Cc1ccc(NC(=O)CCn2cccc2)cc1Cl")
3190
>>> assay_value("CCN1CC=C2C(C1)C(c1ccc(Cl)s1)C(C#N)=C(N)C2(C#N)C#N (stereo not drawn)")
3020
>>> assay_value("CCN(CC)c1ccc2cc(C#N)c(=O)oc2c1")
3390
>>> assay_value("N/C(=N\\OC(=O)C1CCCCC1)c1cccc([N+](=O)[O-])c1")
3090
>>> assay_value("Cc1ccccc1SCc1noc(C(=O)NC(C)C)c1C(=O)O")
3150
>>> assay_value("COC(=O)c1cc2c(-c3ccccc3)c(C)c3ccccn3c-2c1C(=O)OC")
2900
>>> assay_value("N#Cc1ccc(-c2ccccc2)nc1SCC(=O)c1cccc(Cl)c1")
3340
>>> assay_value("O=C(Nc1ccon1)c1cccc(S(=O)(=O)N2CCCCC2)c1")
3190
>>> assay_value("COc1cccc(NC(=O)N2CCN(c3nnnn3-c3ccccc3)CC2)c1")
2880
>>> assay_value("COC(=O)c1cnn2c(C(F)(F)F)cc(-c3ccc(F)cc3)nc12")
2980
>>> assay_value("CCOc1ccc(NC(=S)N2CCC(N(C)CC3CCCO3)CC2)cc1 (stereo not drawn)")
2900
>>> assay_value("N#CC1CC(c2ccc([N+](=O)[O-])cc2)=NN1c1ccc([N+](=O)[O-])cc1 (stereo not drawn)")
3490
>>> assay_value("C/C(=N\\Nc1ccc([N+](=O)[O-])cc1)c1cc2ccccc2o1")
2980
>>> assay_value("CN(C)CCOCCOc1ccccc1-c1ccccc1")
3130
>>> assay_value("CC[n+]1c(/C=C/C=C/N(C(C)=O)c2ccccc2)sc2cc(OC)ccc21")
111
>>> assay_value("O=C(Nc1ccc(C2CCCCC2)cc1)C1CCCN(c2ncccn2)C1 (stereo not drawn)")
2990
>>> assay_value("CCCC1C2CN(C(C)C)CC=C2C(C#N)=C(N)C1(C#N)C#N (stereo not drawn)")
2800
>>> assay_value("CCOC(=O)Cn1c2ccc(F)cc2c2nc(C)sc21")
2900
>>> assay_value("COc1ccc(C2/C=C\\CN(S(=O)(=O)c3cccc4cccnc34)CC(=O)N2Cc2ccc(F)cc2)cc1 (stereo not drawn)")
3760
>>> assay_value("COCCN1C(=O)/C(=C/c2ccc(N3CCCC3)cc2)SC1=S")
3330
>>> assay_value("CCCCCCc1cc2cc(-c3nnc(-c4ccccc4O)o3)c(=O)oc2cc1O")
2760
>>> assay_value("Cc1cc(=O)oc2cc(OCC(=O)OCC(=O)NC3CC3)ccc12")
3150
>>> assay_value("COCCN1CN(S(=O)(=O)c2ccccc2)c2nc3ccccc3nc21")
3380
>>> assay_value("COc1ccccc1NC(=O)COC(=O)C1CC2C=CC1C2 (stereo not drawn)")
2990
>>> assay_value("O=C1S/C(=C/c2ccc(N3CCOCC3)o2)C(=O)N1Cc1ccc(F)cc1")
3300
>>> assay_value("COc1ccc(/C=C(\\C#N)C(=O)OCC(=O)Nc2c(C)cccc2C(C)C)cc1")
2950
>>> assay_value("O=[N+]([O-])c1ccc(/C=C/C2=NN(c3ccccc3)C(c3ccco3)C2)o1 (stereo not drawn)")
3240
>>> assay_value("Cc1ccc([N+](=O)[O-])cc1NC(=O)c1cccs1")
3030
>>> assay_value("NCC12CC3CC(C1)CC(CN)(C3)C2")
3300
>>> assay_value("Cc1[nH]c2ccccc2c1/C=N/Nc1ccc([N+](=O)[O-])cc1S(=O)(=O)Nc1ccc(Cl)cc1")
2050
>>> assay_value("O=C(C1=C[C@H](C2CC2)C[C@H](OCCCCO)O1)N1CCN(Cc2ccccc2)CC1")
2880
>>> assay_value("Cc1ccc(-c2cc(-c3ccco3)c3c(N)c(C(=O)NN)oc3n2)cc1")
2700
>>> assay_value("CN1C(=O)CC(N2CCN(Cc3ccc(Cl)cc3)CC2)C1=O (stereo not drawn)")
2870
>>> assay_value("CCCNC(=O)Cn1c(=O)/c(=C\\c2ccc(-c3ccc([N+](=O)[O-])cc3)o2)s/c1=C\\C(=O)C(C)(C)C")
3100
>>> assay_value("O=C(COC(=O)c1cc(S(=O)(=O)N2CCOCC2)ccc1O)NCC1CCCO1 (stereo not drawn)")
3080
>>> assay_value("N#CC1=C(N)C(C#N)(C#N)[C@H](c2ccoc2)[C@H]2CN(Cc3ccccc3)CC=C12")
2630
>>> assay_value("CCOc1ccc(OCC)c(-c2c(=O)n(OCc3ccc(Cl)cc3)c3ccccc3[n+]2[O-])c1")
2760
>>> assay_value("Cc1cc(C)cc(N=Cc2[nH]c3ccc(Br)c(Cl)c3c2O)c1")
2820
>>> assay_value("CN1CC=C2C(C#N)=C(N)C(C#N)(C#N)C(c3cccc(Cl)c3Cl)C2C1 (stereo not drawn)")
3010
>>> assay_value("O=c1c2ccccc2c(C=Nc2ccccc2O)c(O)n1-c1nccs1")
2390
